Attribution: patent US5420289A

Biological target: human synovial fluid PLA2 (Homo sapiens)
Sequence (P14555 21-144): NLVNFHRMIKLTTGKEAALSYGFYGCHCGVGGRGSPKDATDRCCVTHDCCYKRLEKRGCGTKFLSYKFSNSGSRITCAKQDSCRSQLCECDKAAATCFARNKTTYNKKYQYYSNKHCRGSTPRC
Assay: in vitro isolated phospholipase A2 assay, human synovial fluid PLA2 (Example 74)
Conditions: Table III; read-out: IC50 HSF (human synovial fluid)
observation type: pIC50
Give bare numbers, as −log10 of the molar value.

• CCCCCn1c(C)c(CC(=O)O)c2cc(OCc3ccc4ccccc4n3)ccc21 [Example 29, hemihydrate] = 4.81
• CC1=C(CC(=O)O)c2cc(OCc3ccc4ccccc4n3)ccc2/C1=C\c1ccc(Cl)cc1 = 5.01

Now look at this entry.
Log: human synovial fluid PLA2 (Homo sapiens), compound Cc1c(CC(=O)O)c2cc(OCc3ccc4ccccc4n3)ccc2n1C(=O)c1ccc(Cl)cc1 [Example 17, hydrate] , pIC50 = 4.83
